Record form. Attribute: pKd. Fill in for each entry.
- measured_on: human ROR1 protein (recombinant ROR1 antigen, Kactus Biosystems) (human, UniProt Q01973 30-406, limits assumed)
- Sequence (Q01973 30-406 limits assumed): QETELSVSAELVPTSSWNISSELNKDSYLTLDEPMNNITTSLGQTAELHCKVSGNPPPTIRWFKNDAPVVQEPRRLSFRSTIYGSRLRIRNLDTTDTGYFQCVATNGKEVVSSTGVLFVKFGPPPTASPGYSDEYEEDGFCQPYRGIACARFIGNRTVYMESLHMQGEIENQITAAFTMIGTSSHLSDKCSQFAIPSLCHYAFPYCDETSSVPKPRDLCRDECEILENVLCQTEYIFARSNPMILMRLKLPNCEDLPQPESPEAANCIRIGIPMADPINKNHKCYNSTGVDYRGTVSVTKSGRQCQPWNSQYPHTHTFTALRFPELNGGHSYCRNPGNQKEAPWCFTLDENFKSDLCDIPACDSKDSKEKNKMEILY
- measurement_protocol: BLI (Octet R8), antibody captured on AHC sensor, ROR1 antigen as analyte
// returns pKd (minus log10 of molar concentration), number only

Tell me its pKd given YR-8 (antibody, human IgG1, kappa, V domains shown) VH: QVQLQESGPGLVKPSETLSLTCTVSGFSLTRYGVHWIRQPPGKGLEWLGVIWAGGFTNYNSDLKSRLTISKDNSKNQVSLKLSSVTAADTAVYYCARRGDSYSMKYWGQGTLVTVSS VL: EIVLTQSPATLSLSPGERATLSCSASSQVSYIHWYQQKPGQAPRPWIYETSKLASGIPARFSGSGSGTDYTLTISSLEPEDFAVYYCQQWNYPLITFGQGTKLEIKR as the entry.
8.01

Retrieve pKd measured for YR-21 (antibody, human IgG1, kappa, V domains shown) VH: QVQLQESGPGLVKPSETLSLTCTVSGFSLTRYGVHWIRQPPGKGLEWLGVIWAGGFTNYNSGLKSRLTISKDNSKNQVSLKLSSVTAADTAVYYCARRGDQYSMGYWGQGTLVTVSS VL: EIVLTQSPATLSLSPGERATLSCSASSQVSYIHWYQQKPGQAPRPWIYETSKLASGIPARFSGSGSGTDYTLTISSLEPEDFAVYYCQQWNYPLITFGQGTKLEIKR and print it.
8.21

Read off the recorded pKd for YR-11 (antibody, human IgG1, kappa, V domains shown) VH: QVQLQESGPGLVKPSETLSLTCTVSGFSLTRYGVHWIRQPPGKGLEWIGVIWAGGFTNYNSALKSRVTISKDNSKNQVSLKLSSVTAADTAVYYCARRGNEYSMSYWGQGTLVTVSS VL: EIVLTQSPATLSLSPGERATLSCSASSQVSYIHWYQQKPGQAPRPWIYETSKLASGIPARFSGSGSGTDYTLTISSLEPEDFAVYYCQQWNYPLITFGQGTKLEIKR
8.12

Check the records and state pKd for YR-4 (antibody, human IgG1, kappa, V domains shown) VH: QVQLQESGPGLVKPSETLSLTCTVSGFSLTRYGVHWIRQPPGKGLEWIGVIWAGGFTNYNSSLKSRVTISKDNSKNQVSLKLSSVTAADTAVYYCARRGDGYSMQYWGQGTLVTVSS VL: EIVLTQSPATLSLSPGERATLSCSASSQVSYIHWYQQKPGQAPRPWIYEISKLASGIPARFSGSGSGTDYTLTISSLEPEDFAVYYCQQWNYPLITFGQGTKLEIKR
8.00

Quickly give me recorded pKd for YR-10 (antibody, human IgG1, kappa, V domains shown) VH: QVQLQESGPGLVKPSETLSLTCTVSGFSLTRYGVHWIRQPPGKGLEWIGVIWAGGFTNYNSTLKSRVTISKDNSKNQVSLKLSSVTAADTAVYYCARRGNQYSMKYWGQGTLVTVSS VL: EIVLTQSPATLSLSPGERATLSCSASSQVSYIHWYQQKPGQAPRPWIYETSKLASGIPARFSGSGSGTDYTLTISSLEPEDFAVYYCQQWNYPLISFGQGTKLEIKR
7.95

Give me measured pKd, please, for this binder: humanized antibody BRHu-3 (antibody, human IgG1, kappa, V domains shown, humanized D10, human IgG1 / kappa) VH: QVQLQESGPGLVKPSETLSLTCTVSGFSLTSYGVHWIRQPPGKGLEWLGVIWAGGFTNYNSALKSRLTISKDNSKNQVSLKLSSVTAADTAVYYCARRGSSYSMDYWGQGTLVTVSS VL: EIVLTQSPATLSLSPGERATLSCSASSNVSYIHWYQQKPGQAPRPWIYEISKLASGIPARFSGSGSGTDYTLTISSLEPEDFAVYYCQQWNYPLITFGQGTKLEIKR
7.20
